Origin of values: PubChem BioAssay (EPA / NIEHS)

# Read-out: Protein phosphatase 2A (PPP2R4), PTPA (gene 5524)
# methodSummary: LTEA_HepaRG_PPP2R4: Life Technologies and Expression Analysis (LTEA) Assay for Protein phosphatase 2A (PPP2R4) using HepaRG (AID 2283522)
# experimentalConditions: mRNA level, 48 h; actives raise or lower the signal
Calls of active or inactive are those of the source. The calls were made as follows: active = hit-call score of the fitted dose curve at least 0.9, where 1 is the maximum; inactive = score below 0.9.
Tick one outcome: true (1) (active), false (0) (inactive)

CC(C)N(C(=O)COc1nnc(C(F)(F)F)s1)c1ccc(F)cc1; true (1)

Task: State the result this test recorded for O=[N+]([O-])c1c(Cl)c(Cl)c(Cl)c(Cl)c1Cl .
Output: false (0)

Task: Moving on to the next compound: CC(C)OC(=O)Nc1cccc(Cl)c1
Output: false (0)

Task: Moving on to the next compound: Clc1ccccc1-c1nnc(-c2ccccc2Cl)nn1
Output: false (0)

* * *

# Read-out: Human Leukocyte Antigen - DR isotype (HLADR), HLA-DRA (gene 3122)
# methodSummary: BSK_3C_HLADR: BioMAP Diversity Plus: 3C Assay for Human Leukocyte Antigen - DR isotype (HLADR) Biomarker Activity (AID 2283019);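 as to outcome: ELISA of cell-surface HLA-DR on HUVEC 24 h after dosing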
# experimentalConditions: primary human endothelial cells (HUVEC); actives raise or lower the signal
Activity calls are given as the source filed them. Rule for the calls: active = hit-call score of the fitted dose curve at least 0.9, where 1 is the maximum; inactive = score below 0.9.
Tick one outcome: active, inactive

O=S(=O)(O)C(F)(F)C(F)(F)C(F)(F)C(F)(F)C(F)(F)C(F)(F)C(F)(F)C(F)(F)F; inactive

Task: State the result this test recorded for O=[N+]([O-])c1c(Cl)c(Cl)c(Cl)c(Cl)c1Cl .
Output: active

Task: Moving on to the next compound: CCOc1nc(NC)nc(NC(=O)NS(=O)(=O)c2ccccc2C(=O)OC)n1
Output: inactive

Task: Moving on to the next compound: COC(=O)c1ccccc1S(=O)(=O)NC(=O)Nc1nc(C)nc(OC)n1
Output: inactive

* * *

# methodSummary: APR_HepG2_CellLoss_1hr: Apredica 1-hour HepG2 Assay for Cell Loss (AID 2282668);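 also: curves fitted both ways against DMSO so gain or loss of cells counts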
# experimentalConditions: high-content imaging
Active and inactive are the calls of the source. How the source made its calls: active means hit-call score of the fitted dose curve at least 0.9, where 1 is the maximum; inactive means score below 0.9.
Tick one outcome: yes (1) = active, no (0) = inactive

Task: State the result this test recorded for CCC(C)(NC(=O)c1cc(Cl)c(C)c(Cl)c1)C(=O)CCl (stereo unspecified) .
Output: no (0)

Task: Moving on to the next compound: O=C(O)CCCOc1ccc(Cl)cc1Cl
Output: no (0)

Task: Moving on to the next compound: N#Cc1c(Cl)c(Cl)c(Cl)c(C#N)c1Cl
Output: yes (1)

Task: Moving on to the next compound: CCOCN(C(=O)CCl)c1c(C)cccc1CC
Output: no (0)

Task: Moving on to the next compound: CC1(C)C(C=C(Cl)Cl)C1C(=O)OC(C#N)c1ccc(F)c(Oc2ccccc2)c1 (stereo unspecified)
Output: no (0)

Task: Moving on to the next compound: CCOC1Oc2ccc(OS(C)(=O)=O)cc2C1(C)C (stereo unspecified)
Output: no (0)

* * *

# Read-out: Lipase C (LIPC), LIPC (gene 3990)
# methodSummary: LTEA_HepaRG_LIPC: Life Technologies and Expression Analysis (LTEA) Assay for Lipase C (LIPC) using HepaRG (AID 2283514)
# experimentalConditions: mRNA level, 48 h; actives raise or lower the signal
Activity calls are given as the source filed them. How the source made its calls: active means hit-call score of the fitted dose curve at least 0.9, where 1 is the maximum; inactive means score below 0.9.
Tick one outcome: yes (1) for active, no (0) for inactive

// known answers, use as guide
CNC(=O)CSP(=S)(OC)OC; no (0)
CCC(C)Nc1c([N+](=O)[O-])cc(C(C)(C)C)cc1[N+](=O)[O-] (stereo unspecified); no (0)
CC(C)(C)C(O)/C(=C\c1ccc(Cl)cc1Cl)n1cncn1 (stereo unspecified); yes (1)
CC1(c2ccc(Oc3ccccc3)cc2)OC(=O)N(Nc2ccccc2)C1=O (stereo unspecified); yes (1)

Task: State the result this test recorded for O=C(NC(=O)c1c(F)cccc1F)Nc1ccc(OC(F)(F)C(F)OC(F)(F)F)c(Cl)c1 (stereo unspecified) .
Output: no (0)

Task: Moving on to the next compound: CCN(CC)C(=O)SCc1ccc(Cl)cc1
Output: no (0)

* * *

# Read-out: Matrix Metallopeptidase 9 (MMP9), MMP9 (gene 4318)
# methodSummary: BSK_KF3CT_MMP9: BioMAP Diversity Plus: KF3CT Assay for Matrix Metallopeptidase 9 (MMP9) Biomarker Activity (AID 2283074)
# experimentalConditions: primary human keratinocytes with fibroblasts; actives raise or lower the signal
# Method: BSK_KF3CT is a cell-based, multiplexed-readout assay that uses keratinocytes and foreskin fibroblasts, a human skin primary cell co-culture, with measurements taken at 24 hours after chemical dosing in a 96-well plate.BSK_KF3CT_MMP9 is an assay component measured in the BSK_KF3CT assay. It measures MMP-9 antibody related to regulation of gene expression using ELISA technology.Data from the assay component BSK_KF3CT_MMP9 was analyzed into 1 assay endpoint. […]
Active and inactive are the calls of the source. How the source made its calls: active means hit-call score of the fitted dose curve at least 0.9, where 1 is the maximum; inactive means score below 0.9.
Tick one outcome: active, inactive

O=C(O)C(F)(F)C(F)(F)C(F)(F)C(F)(F)C(F)(F)C(F)(F)C(F)(F)F; inactive

Task: State the result this test recorded for CCS(=O)(=O)c1cccnc1S(=O)(=O)NC(=O)Nc1nc(OC)cc(OC)n1 .
Output: inactive

Task: Moving on to the next molecule: CNC(=O)Oc1ccccc1OC(C)C
Output: inactive

Task: Moving on to the next molecule: CCCN(CCC)c1c([N+](=O)[O-])cc(C(F)(F)F)cc1[N+](=O)[O-]
Output: inactive

Task: Moving on to the next molecule: [2H]C1([2H])[n+]2ccccc2-c2cccc[n+]2C1([2H])[2H]
Output: active

Task: Moving on to the next molecule: O=C1c2ccccc2C(=O)N1SC(Cl)(Cl)Cl
Output: inactive

Task: Moving on to the next molecule: N#CN
Output: inactive

Task: Moving on to the next molecule: O=C(O)COc1ccc(Cl)cc1Cl
Output: inactive

Task: Moving on to the next molecule: CCN(CC)C(=O)SCc1ccc(Cl)cc1
Output: inactive

* * *

# methodSummary: ATG_ERE_CIS: Attagene CIS-FACTORIAL HepG2 Assay for Estrogen Response Element (ERE) (AID 2282940)
# experimentalConditions: HepG2 ERE cis-reporter, Attagene RNA transcript; actives raise or lower the signal
Calls of active or inactive are those of the source. How the source made its calls: active means hit-call score of the fitted dose curve at least 0.9, where 1 is the maximum; inactive means score below 0.9.
propertyName: AC50

CC[C@H](C)[C@H]1O[C@]2(C=C[C@@H]1C)C[C@@H]1C[C@@H](C/C=C(\C)[C@@H](O[C@H]3C[C@H](OC)[C@@H](O[C@H]4C[C@H](OC)[C@@H](O)[C@H](C)O4)[C@H](C)O3)[C@@H](C)/C=C/C=C3\CO[C@@H]4[C@H](O)C(C)=C[C@@H](C(=O)O1)[C@]34O)O2 (tested in a mixture with another compound); inactive
CCc1ccc(C(=O)NN(C(=O)c2cc(C)cc(C)c2)C(C)(C)C)cc1; inactive
O=C1c2ccccc2C(=O)N1SC(Cl)(Cl)Cl; inactive
O=C(Nc1ccccc1)Nc1cnns1; inactive
CNC(=O)Oc1cccc(N=CN(C)C)c1; 91.4 µM (active)
C#CCN1C(=O)COc2cc(F)c(N3C(=O)C4=C(CCCC4)C3=O)cc21; inactive
CN1CSC(=S)N(C)C1; inactive
C[C@H]1[C@H](c2ccc(Cl)cc2)SC(=O)N1C(=O)NC1CCCCC1; inactive

Task: Please give the measured AC50 for this compound: COP(=O)(OC)OC=C(Cl)Cl
Output: inactive

Task: Moving on to the next compound: COP(=S)(OC)Oc1ccc(SC)c(C)c1
Output: 17.7 µM (active)

Task: Moving on to the next compound: CCOC1Oc2ccc(OS(C)(=O)=O)cc2C1(C)C (stereo unspecified)
Output: inactive

* * *

# Read-out: Interleukin-8 (IL8), CXCL8 (gene 3576)
# methodSummary: BSK_LPS_IL8: BioMAP Diversity Plus: LPS Assay for Interleukin-8 (IL8) Biomarker Activity (AID 2283078)
# experimentalConditions: primary human HUVEC with PBMC; actives raise or lower the signal
The source made the active and inactive calls. Rule for the calls: active = hit-call score of the fitted dose curve at least 0.9, where 1 is the maximum; inactive = score below 0.9.
Tick one outcome: y = active, n = inactive

CCOc1nc(NC)nc(NC(=O)NS(=O)(=O)c2ccccc2C(=O)OC)n1; n
C[C@H]1[C@H](c2ccc(Cl)cc2)SC(=O)N1C(=O)NC1CCCCC1; n
Clc1ccccc1-c1nnc(-c2ccccc2Cl)nn1; n

Here is the next item to consider.
Task: State the result this test recorded for CC[C@H](C)[C@H]1O[C@]2(C=C[C@@H]1C)C[C@@H]1C[C@@H](C/C=C(\C)[C@@H](O[C@H]3C[C@H](OC)[C@@H](O[C@H]4C[C@H](OC)[C@@H](O)[C@H](C)O4)[C@H](C)O3)[C@@H](C)/C=C/C=C3\CO[C@@H]4[C@H](O)C(C)=C[C@@H](C(=O)O1)[C@]34O)O2 (tested in a mixture with another compound) .
Output: y

* * *

# System: zebrafish Estrogen Receptor (ESR2B), gene 317733
# methodSummary: ATG_zfER2b_XSP1: Attagene TRANS-FACTORIAL Multi-Species (XSP1) HepG2 Assay for zebrafish Estrogen Receptor (ESR2B) (AID 2283773)
Results filed as inconclusive are left out. Activity calls are given as the source filed them. How the source made its calls: active means hit-call score of the fitted dose curve at least 0.9, where 1 is the maximum; inconclusive means response in the unintended direction; inactive means score below 0.9.
Tick one outcome: active, inactive

// known answers, use as guide
Oc1ccc(Cl)cc1Cc1ccccc1; active
O=S1OCC2C(CO1)C1(Cl)C(Cl)=C(Cl)C2(Cl)C1(Cl)Cl (centres undefined); active
CCCN(CCOc1c(Cl)cc(Cl)cc1Cl)C(=O)n1ccnc1; inactive

Here is the next item to consider.
Task: State the result this test recorded for CCOCN(C(=O)CCl)c1c(C)cccc1CC .
Output: active
